Test: Reverse-phase thin-layer chromatographic lipophilicity (RF, RM0)
Format: physicochemical
Conditions: RP-18 silica; IV = 75%MeOH/20%H2O/5%HCl
Provide the recorded RF, Methanol/Water/Hydrochloric acid (conc.), mobile phase IV for the entries that follow.
// return a plain number; no unit text

## Task Reported RF, Methanol/Water/Hydrochloric acid (conc.), mobile phase IV, molecule Clc1ccc2c(N3CCN(CC45CC6CC(CC(C6)C4)C5)CC3)ccnc2c1 [Compound 20] : ____
## Result 0.56

## Task Further, for Clc1ccc2c(NCCCCCCNCC34CC5CC(CC(C5)C3)C4)ccnc2c1 [Compound 4] ?
## Result 0.49

## Task CC(CCNCCC12CC3CC(CC(C3)C1)C2)Nc1ccnc2ccccc12 (stereo not shown) [Compound 16] ?
## Result 0.5

## Task Same for Clc1ccc2c(NCCCCCN(CCC34CC5CC(CC(C5)C3)C4)CCC34CC5CC(CC(C5)C3)C4)ccnc2c1 [Compound 11]
## Result 0.09

----------
Experiment: Reverse-phase thin-layer chromatographic lipophilicity (RF, RM0)
Type: physicochemical
Conditions: RP-18 silica; IV = 60%Dioxane/35%H2O/5%HCl
I'd be grateful if you could share measured RF, Dioxane/Water/Hydrochloric acid (conc.), mobile phase IV for these entries.
Simply state the number, no unit and no words.

## Task I would be grateful if you could share the reported RF, Dioxane/Water/Hydrochloric acid (conc.), mobile phase IV for `FC(F)(F)c1ccc2c(NCCCNCC34CC5CC(CC(C5)C3)C4)ccnc2c1` .
## Result 0.7

## Task Note, next up: `Clc1ccc2c(NCCCCCCNCC34CC5CC(CC(C5)C3)C4)ccnc2c1`
## Result 0.72

## Task Then this molecule: `Clc1ccc2c(NCCCCN(CCC34CC5CC(CC(C5)C3)C4)CCC34CC5CC(CC(C5)C3)C4)ccnc2c1`
## Result 0.47

## Task Further, for `Clc1ccc2c(Nc3cccc4c(NCCC56CC7CC(CC(C7)C5)C6)cccc34)ccnc2c1` ?
## Result 0.63

## Task Another molecule to check: `Clc1ccc2c(NCCCCCCCCNCC34CC5CC(CC(C5)C3)C4)ccnc2c1`
## Result 0.7

## Task Another: `FC(F)(F)c1ccc2c(NCCNCC34CC5CC(CC(C5)C3)C4)ccnc2c1`
## Result 0.7

## Task What would you report for `Clc1ccc2c(NCCCN3CCN(CCCNCCC45CC6CC(CC(C6)C4)C5)CC3)ccnc2c1` ?
## Result 0.71

## Task Continue with `Clc1ccc2c(NCCN(CCC34CC5CC(CC(C5)C3)C4)CCC34CC5CC(CC(C5)C3)C4)ccnc2c1`
## Result 0.42

## Task What do you get for `Clc1ccc2c(N3CCN(CCC45CC6CC(CC(C6)C4)C5)CC3)ccnc2c1` ?
## Result 0.71

## Task // query: CC(CCNCCC12CC3CC(CC(C3)C1)C2)Nc1ccnc2cc(Cl)ccc12 (centres unmarked)
## Result 0.66

## Task Now the molecule `Clc1ccc2c(NCCNCCC34CC5CC(CC(C5)C3)C4)ccnc2c1`
## Result 0.66

## Task Request: `Clc1ccc2c(Nc3ccc(NCC45CC6CC(CC(C6)C4)C5)cc3)ccnc2c1`
## Result 0.71

## Task Then what about the molecule `Clc1ccc2c(N3CCN(CC45CC6CC(CC(C6)C4)C5)CC3)ccnc2c1` ?
## Result 0.78

## Task Try this molecule too: `Clc1ccc2c(NCCNCC34CC5CC(CC(C5)C3)C4)ccnc2c1`
## Result 0.73

## Task Likewise for CC(CCNCCC12CC3CC(CC(C3)C1)C2)Nc1ccnc2ccccc12 (centres unmarked) ?
## Result 0.7

## Task Let us now turn to `Clc1ccc2c(NCCCN3CCN(CCCNCC45CC6CC(CC(C6)C4)C5)CC3)ccnc2c1`
## Result 0.78

## Task Similarly, `Clc1ccc2c(NCCCCNCC34CC5CC(CC(C5)C3)C4)ccnc2c1` ?
## Result 0.74

## Task Ok, now CC(CCNCC12CC3CC(CC(C3)C1)C2)Nc1ccnc2ccccc12 (centres unmarked)
## Result 0.7

## Task What about CC(CCNCC12CC3CC(CC(C3)C1)C2)Nc1ccnc2cc(Cl)ccc12 (centres unmarked) ?
## Result 0.72

## Task For CC(CCNCC12CC3CC(CC(C3)C1)C2)Nc1ccnc2cc(C(F)(F)F)ccc12 (centres unmarked) then?
## Result 0.7

## Task Would you kindly repeat that for `Clc1ccc2c(Nc3cccc(NCC45CC6CC(CC(C6)C4)C5)c3)ccnc2c1` ?
## Result 0.7

## Task Ok, now `Clc1ccc2c(NCCCCCN(CCC34CC5CC(CC(C5)C3)C4)CCC34CC5CC(CC(C5)C3)C4)ccnc2c1`
## Result 0.47

## Task Please answer likewise for `Clc1ccc2c(NCCCNCC34CC5CC(CC(C5)C3)C4)ccnc2c1`
## Result 0.73

----------
Assay: Reverse-phase thin-layer chromatographic lipophilicity (RF, RM0)
Assay type: physicochemical
Conditions: RP-18 silica; VIII = 55%MeOH/40%H2O/5%HCl
Method: Chromatographic determination of lipophilicity Merck, Darmstadt, Germany). The mobile phase contained organic modifier (methanol, acetone or dioxane), water and hydrochloric acid. Methanol was varied in the range […] with an increment of 10%. […] before chromatogram development. The solvent developing distance was 4.5 cm. Detection of […] All experiments were performed at ambient temperature (22±2 °C). Retention parameters were calculated as previously described. […]
readout_name: RF, Methanol/Water/Hydrochloric acid (conc.), mobile phase VIII
Form field (numeric): enter value without unit.

## Task # get_value(readout='RF, Methanol/Water/Hydrochloric acid (conc.), mobile phase VIII', item= `FC(F)(F)c1ccc2c(NCCNCC34CC5CC(CC(C5)C3)C4)ccnc2c1` )
## Result 0.18

## Task Param item: `Clc1ccc2c(NCCNCCC34CC5CC(CC(C5)C3)C4)ccnc2c1`
## Result 0.13

## Task Do the same for `Clc1ccc2c(NCCCCNCC34CC5CC(CC(C5)C3)C4)ccnc2c1` please
## Result 0.18

## Task `Clc1ccc2c(NCCCN3CCN(CCCNCCC45CC6CC(CC(C6)C4)C5)CC3)ccnc2c1` ?
## Result 0.18

## Task Okay, and `Clc1ccc2c(NCCCNCC34CC5CC(CC(C5)C3)C4)ccnc2c1` ?
## Result 0.19

## Task Now try `Clc1ccc2c(NCCN(CCC34CC5CC(CC(C5)C3)C4)CCC34CC5CC(CC(C5)C3)C4)ccnc2c1` .
## Result 0

## Task Follow-up entry: `Clc1ccc2c(NCCCCCCCCNCC34CC5CC(CC(C5)C3)C4)ccnc2c1`
## Result 0.07

## Task Ok, now CC(CCNCCC12CC3CC(CC(C3)C1)C2)Nc1ccnc2cc(Cl)ccc12 (centres unmarked)
## Result 0.1

## Task Repeat for the following compound: CC(CCNCC12CC3CC(CC(C3)C1)C2)Nc1ccnc2ccccc12 (centres unmarked)
## Result 0.2

## Task Follow-up entry: `FC(F)(F)c1ccc2c(NCCCNCC34CC5CC(CC(C5)C3)C4)ccnc2c1`
## Result 0.15

## Task Now the same for CC(CCNCCC12CC3CC(CC(C3)C1)C2)Nc1ccnc2ccccc12 (centres unmarked)
## Result 0.15

## Task Next up: `Clc1ccc2c(N3CCN(CC45CC6CC(CC(C6)C4)C5)CC3)ccnc2c1`
## Result 0.31

## Task Also CC(CCNCC12CC3CC(CC(C3)C1)C2)Nc1ccnc2cc(Cl)ccc12 (centres unmarked) , if possible.
## Result 0.18

## Task For `Clc1ccc2c(N3CCN(CCC45CC6CC(CC(C6)C4)C5)CC3)ccnc2c1` then?
## Result 0.18

## Task Same read-out for CC(CCNCC12CC3CC(CC(C3)C1)C2)Nc1ccnc2cc(C(F)(F)F)ccc12 (centres unmarked) ?
## Result 0.14

## Task # iterate: `Clc1ccc2c(Nc3ccc(NCC45CC6CC(CC(C6)C4)C5)cc3)ccnc2c1`
## Result 0.15

## Task Also check `Clc1ccc2c(NCCCN3CCN(CCCNCC45CC6CC(CC(C6)C4)C5)CC3)ccnc2c1`
## Result 0.31

----------
For each entry below, report its RF, Acetone/Water/Hydrochloric acid (conc.), mobile phase VII value.
Assay: Reverse-phase thin-layer chromatographic lipophilicity (RF, RM0)
Format: physicochemical
Settings: RP-18 silica; VII = 50%AC/45%H2O/5%HCl
The reply should be a number, written without any unit.

## Task Fill blank: measured RF, Acetone/Water/Hydrochloric acid (conc.), mobile phase VII of the compound CC(CCNCC12CC3CC(CC(C3)C1)C2)Nc1ccnc2ccccc12 (centres unmarked) is ____.
## Result 0.35

## Task And the next one, `Clc1ccc2c(NCCCCNCC34CC5CC(CC(C5)C3)C4)ccnc2c1` ?
## Result 0.35

## Task Also check `Clc1ccc2c(NCCNCCC34CC5CC(CC(C5)C3)C4)ccnc2c1`
## Result 0.29

## Task Also `Clc1ccc2c(NCCCCCCCCNCC34CC5CC(CC(C5)C3)C4)ccnc2c1` , if possible.
## Result 0.28

## Task Let us now turn to `Clc1ccc2c(Nc3cccc4c(NCCC56CC7CC(CC(C7)C5)C6)cccc34)ccnc2c1`
## Result 0.25
